# targetOfAssay: HLA-A*0201 (human)
Listed next: entries and their corresponding binding affinity ratio (IC50 of standard peptide / IC50 of test peptide).
testReadout: binding affinity ratio (IC50 of standard peptide / IC50 of test peptide)

- TLPALSTGL (modifications not checked) [HCV peptide … (HCV polyprotein position 686)]: 0.0003
- TLHGPTPLL (modifications not checked) [HCV peptide … (HCV polyprotein position 1622)]: 0.007
- VAYYRGLDV (modifications not checked) [HCV peptide … (HCV polyprotein position 1420)]: 0.0001
- VAYQATVCA (modifications not checked) [HCV peptide … (HCV polyprotein position 1592)]: 0.0005
